Target: T1, α4β1 (R&D Systems #5668-A4) (UniProt P13612 34-970; P05556 21-728, limits assumed)
T1 construct: bought; also called soluble α4β1
Test: competition ELISA vs VCAM-1
Bridge positions count the residues as written; N and C are the ends. Square brackets hold non-standard residues; d marks the D form. NMeR = CN[C@@H](CCCNC(=N)N)C(=O)O; Pen = CC(C)(S)[C@H](N)C(=O)O

- BINDER: "Ac-C[NMeR]SDTL[Pen]W[dK]-NH2 (disulfide 1-7; also: homodimer via DIG linker on D-Lys9 side chains, also called peptide 204) [SEQ ID NO: 204]"
  IC50: "463 nM"
- BINDER: "Ac-CRSDTLC-NH2 (disulfide 1-7 (inferred), also called peptide 195) [SEQ ID NO: 195]"
  IC50: "2880 nM"
- BINDER: "Ac-[Pen][NMeR]SDTL[Pen]W[dE][dK]-NH2 (disulfide 1-7; also: dimer, two subunits joined by DIG linker, also called peptide 211) [SEQ ID NO: 211]"
  IC50: "302 nM"
- BINDER: "Ac-[Pen][NMeR]SDTL[Pen]W[dE][dK]-OH (disulfide 1-7; not fully specified (residue 10); printed as (Ac Pen N-Me-R S D T L Pen W e k OH)2 DIG, disulfide Pen-Pen; also: dimer, two subunits joined by DIG linker, also called peptide 216) [SEQ ID NO: 216]"
  IC50: "247 nM"
